assay: cells; conditions: Homo sapiens, PC-3, 72 h
Description: Cytotoxicity against human PC3 cells after 72 hrs by MTT assay
pIC50: −log10 of the molar value.
Lab note: anything with pIC50 at or over 6 counts as y; the rest go in n.

smiles=Cc1ccc(-c2ccnc(C(=O)Nc3ccc(Oc4ccnc5[nH]ccc45)cc3)n2)cc1 class=n

In plain terms: is recorded pIC50 at least 6 for `O=C(Nc1ccc(Oc2ccnc3[nH]ccc23)cc1)c1cc(-c2ccccc2)ncn1` ?
y

In plain terms: is recorded pIC50 at least 6 for `COc1ccc(-c2cc(C(=O)Nc3ccc(Oc4ccnc5[nH]ccc45)c(F)c3)ncn2)cc1` ?
n

In plain terms: is recorded pIC50 at least 6 for `O=C(Nc1ccc(Oc2ccnc3[nH]ccc23)cc1)c1cc(-c2ccc(C(F)(F)F)cc2)ncn1` ?
n

In plain terms: is recorded pIC50 at least 6 for `COc1ccc(-c2ccnc(C(=O)Nc3ccc(Oc4ccnc5[nH]ccc45)c(F)c3)n2)cc1` ?
n
